Entry source: patent US6180844A

# Test system: human chromosome
# EXPERIMENT_DESCRIPTION: In-situ hybridization of a human chromosome: fluorescence-generating substrate reacted with probe-bonded peroxidase and hydrogen peroxide, observed by fluorescence microscope
# Set-up: key: +++: Very strong.; ++: Strong.; +: Weak.; ±: Very weak.; -: Not detected
# STUDY_CONDITIONS: human chromosome sample from peripheral blood lymphocytes; substrate in 0.01% hydrogen peroxide, room temperature 30 minutes; fluorescence microscope
MEASURED_ATTRIBUTE: Intensity of Fluorescence

>>> print(df.to_string())
                                   molecule         measured_attribute  observed
0       Cc1cc(C)c(C(=O)Nc2ccc(O)cc2C)c(C)c1  Intensity of Fluorescence        ++
1            O=C(O)CCCCCNC(=O)CCc1ccc(O)cc1  Intensity of Fluorescence       +++
2               Cc1cc(O)ccc1NC(=O)c1ccccc1C  Intensity of Fluorescence        ++
3  O=C(O)CCc1ccc(O)cc1 [HPPA, 3-(4-hydroxyphenyl)propionic acid, reference compound]  Intensity of Fluorescence         ±

###

# Tested on: human chromosome
# EXPERIMENT_DESCRIPTION: In-situ hybridization of a human chromosome: fluorescence-generating substrate reacted with probe-bonded peroxidase and hydrogen peroxide, observed by fluorescence microscope
# Parameters: key: +++: Very strong.; ++: Strong.; +: Weak.; ±: Very weak.; -: Not detected
# STUDY_CONDITIONS: binding of the substrate to the chromosome; same reaction conditions
MEASURED_ATTRIBUTE: Binding

>>> df
                                   compound  measured_attribute  observed
0            O=C(O)CCCCCNC(=O)CCc1ccc(O)cc1             Binding       +++
1               Cc1cc(O)ccc1NC(=O)c1ccccc1C             Binding        ++
2  O=C(O)CCc1ccc(O)cc1 [HPPA, 3-(4-hydroxyphenyl)propionic acid, reference compound]             Binding         +
3       Cc1cc(C)c(C(=O)Nc2ccc(O)cc2C)c(C)c1             Binding        ++
